TARGET_ENTITY: hCA I (Homo sapiens)
Construct: recombinant, obtained in house
Sequence (P00915 2-261): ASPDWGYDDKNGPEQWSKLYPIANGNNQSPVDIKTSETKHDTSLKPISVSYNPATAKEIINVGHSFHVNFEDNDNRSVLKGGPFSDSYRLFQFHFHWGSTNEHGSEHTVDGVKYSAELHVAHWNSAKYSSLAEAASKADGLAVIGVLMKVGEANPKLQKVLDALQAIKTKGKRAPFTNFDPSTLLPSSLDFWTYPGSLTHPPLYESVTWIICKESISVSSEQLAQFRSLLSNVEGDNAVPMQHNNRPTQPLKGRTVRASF
METHOD_SUMMARY: stopped-flow CO2 hydrase assay
RECORDED_METRIC: Ki

Query: # Ki lookup, item CNC(=S)NN=C(C)c1ccc(-n2ccnc2)cc1 [compound 4, TSC 4]
Response: > 1 mM

Query: // query: CNC(=S)NN=C(C)c1ccc2c(c1)OCO2 [compound 6, TSC 6]
Response: > 1 mM

Query: // query: CNC(=S)NN=C(C)c1ccc2c(c1)OCCO2 [compound 7, TSC 7]
Response: > 1 mM

----------
TARGET_ENTITY: HpβCA (Helicobacter pylori, UniProt O24855)
Construct: recombinant, expressed in E. coli (DE3), purified
Sequence (O24855 whole entry): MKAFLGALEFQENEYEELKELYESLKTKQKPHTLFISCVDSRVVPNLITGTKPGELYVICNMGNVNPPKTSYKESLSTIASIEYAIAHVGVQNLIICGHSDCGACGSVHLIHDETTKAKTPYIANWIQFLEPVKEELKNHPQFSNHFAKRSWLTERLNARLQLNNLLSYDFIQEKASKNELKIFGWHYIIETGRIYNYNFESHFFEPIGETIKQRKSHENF
METHOD_SUMMARY: stopped-flow CO2 hydrase assay
RECORDED_METRIC: Ki (µM)
Your answer should be a plain number; it is taken to be in µM.

Query: HpβCA (Helicobacter pylori, UniProt O24855) / Ki / "CNC(=S)NN=C(C)c1ccc(-c2cc3ccccc3[nH]2)cc1" : value?
Response: 348
